experiment: In vitro dissociation of the water soluble taxane derivatives in blood plasma of rabbit; type: in vitro ADME, New Zealand white rabbits; settings: 37° C., 20 min
# maps each entry to its dissociation percent
Output spec: scalar in %, unitless text.

Please review the following examples before continuing.
[[record]]
compound = "CO[C@H]1C(=O)[C@]2(C)[C@@H](OC)C[C@H]3OC[C@@]3(OC(C)=O)[C@H]2[C@H](OC(=O)c2ccccc2)[C@]2(O)C[C@H](OC(=O)[C@H](OC(=O)[C@@H](F)CCN(C)C)[C@@H](NC(=O)OC(C)(C)C)c3ccccc3)C(C)=C1C2(C)C.Cl"
property_label = "dissociation percent"
unit_abbreviation = "%"
assay_value = 93.2

[[record]]
compound = "CC(=O)O[C@H]1C(=O)[C@@]2(C)[C@H]([C@H](OC(=O)c3ccccc3)[C@]3(O)C[C@H](OC(=O)[C@H](OC(=O)C(F)CCN(C)C)[C@@H](NC(=O)c4ccccc4)c4ccccc4)C(C)=C1C3(C)C)[C@]1(OC(C)=O)CO[C@@H]1C[C@@H]2O.CS(=O)(=O)O (stereo partly shown)"
property_label = "dissociation percent"
unit_abbreviation = "%"
assay_value = 94.6

[[record]]
compound = "CO[C@H]1C(=O)[C@]2(C)[C@@H](OC)C[C@H]3OC[C@@]3(OC(C)=O)[C@H]2[C@H](OC(=O)c2ccccc2)[C@]2(O)C[C@H](OC(=O)[C@H](OC(=O)[C@H](F)CCN(C)C)[C@@H](NC(=O)OC(C)(C)C)c3ccccc3)C(C)=C1C2(C)C.CS(=O)(=O)O"
property_label = "dissociation percent"
unit_abbreviation = "%"
assay_value = 94.8


We next turn to a different compound, shown below.
I'd like to know its dissociation percent. The compound in question is CC(=O)O[C@@]12CO[C@@H]1C[C@H](O)[C@@]1(C)C(=O)[C@H](O)C3=C(C)[C@@H](OC(=O)[C@H](OC(=O)C(F)CCN(C)C)[C@@H](NC(=O)OC(C)(C)C)c4ccccc4)C[C@@](O)([C@@H](OC(=O)c4ccccc4)[C@H]21)C3(C)C.CS(=O)(=O)O (stereo partly shown) 97.8

----------
Documented dissociation percent across a set of compounds
test: In vitro dissociation of the water soluble taxane derivatives in blood plasma of rabbit; assay type: in vitro ADME, New Zealand white rabbits; conditions: 37° C., 5 min
Structures can show the parent of a compound that is named as a salt.
Number only, in %; omit the unit.

Consider the following illustrative entries.
[[record]]
compound = "CC(=O)O[C@H]1C(=O)[C@@]2(C)[C@H]([C@H](OC(=O)c3ccccc3)[C@]3(O)C[C@H](OC(=O)[C@H](OC(=O)C(F)CCN(C)C)[C@@H](NC(=O)c4ccccc4)c4ccccc4)C(C)=C1C3(C)C)[C@]1(OC(C)=O)CO[C@@H]1C[C@@H]2O.CS(=O)(=O)O (stereo partly shown)"
assay_value = 76.5

[[record]]
compound = "CC(=O)O[C@@]12CO[C@@H]1C[C@H](O)[C@@]1(C)C(=O)[C@H](O)C3=C(C)[C@@H](OC(=O)[C@H](OC(=O)[C@H](F)CCN(C)C)[C@@H](NC(=O)OC(C)(C)C)c4ccccc4)C[C@@](O)([C@@H](OC(=O)c4ccccc4)[C@H]21)C3(C)C.CS(=O)(=O)O"
assay_value = 81.6

[[record]]
compound = "CCN(CC)CC[C@](C)(C(=O)O[C@@H](C(=O)O[C@H]1C[C@@]2(O)[C@@H](OC(=O)c3ccccc3)[C@@H]3[C@]4(OC(C)=O)CO[C@@H]4C[C@H](OC)[C@@]3(C)C(=O)[C@H](OC)C(=C1C)C2(C)C)[C@@H](NC(=O)OC(C)(C)C)c1ccccc1)C(F)(F)F.CS(=O)(=O)O"
assay_value = 56.2

[[record]]
compound = "CC(=O)O[C@H]1C(=O)[C@@]2(C)[C@H]([C@H](OC(=O)c3ccccc3)[C@]3(O)C[C@H](OC(=O)[C@H](OC(=O)[C@@H](F)CCN(C)C)[C@@H](NC(=O)c4ccccc4)c4ccccc4)C(C)=C1C3(C)C)[C@]1(OC(C)=O)CO[C@@H]1C[C@@H]2O.Cl"
assay_value = 68.2

[[record]]
compound = "CO[C@H]1C(=O)[C@]2(C)[C@@H](OC)C[C@H]3OC[C@@]3(OC(C)=O)[C@H]2[C@H](OC(=O)c2ccccc2)[C@]2(O)C[C@H](OC(=O)[C@H](OC(=O)[C@H](F)CCN(C)C)[C@@H](NC(=O)OC(C)(C)C)c3ccccc3)C(C)=C1C2(C)C [Compound 07, hydrochloride]"
assay_value = 79.2


Requested read-out: dissociation percent. Entry: CC(=O)O[C@H]1C(=O)[C@@]2(C)[C@H]([C@H](OC(=O)c3ccccc3)[C@]3(O)C[C@H](OC(=O)[C@H](OC(=O)[C@H](F)CCN(C)C)[C@@H](NC(=O)c4ccccc4)c4ccccc4)C(C)=C1C3(C)C)[C@]1(OC(C)=O)CO[C@@H]1C[C@@H]2O.CS(=O)(=O)O 77.2

Bench note: what dissociation percent did COC1C(=O)C2(C)C(OC)CC3OCC3(OC(C)=O)C2C(OC(=O)c2ccccc2)C2(O)CC(OC(=O)C(OC(=O)C(F)CCN(C)C)C(NC(=O)OC(C)(C)C)c3ccccc3)C(C)=C1C2(C)C.Cl (stereo not shown) show? 83.2

Provenance of the data: patent US10239851B2
